# System: TK-10 renal
# measurement-protocol: NCI tumour cell line growth inhibition, 48 h
measurement-name: GI50

Guide cases for GI50, answers given:
compound	GI50
CN1CCN(c2nc(NCCCNc3ccnc4cc(Cl)ccc34)c3ccccc3n2)CC1	10.8 µM
Cc1[nH]c(-c2nc3ccccc3[nH]2)c(C)c1C(=O)NC(C)C1CCCCC1 (stereo unspecified)	21.5 µM
c1cncc(C2Nc3cccc4cccc(c34)N2)c1	26.8 µM
N#Cc1c(N)nc(N)nc1N[C@H](c1nc2c(F)ccc(Cl)c2c(=O)n1-c1cccnc1)C1CC1	1.92 µM
CCCCNC(=O)Oc1ccc(/C(=C(/C)Cc2ccc(OC)cc2)c2ccc(OCCN3CCCC3)cc2)cc1	4.31 µM

Input line: Assign GI50 to the following record: "OCCNCCCOc1ccc2ncnc(Nc3ccc(Oc4cccc(C(F)(F)F)c4)c(Cl)c3)c2c1"
Output line: 1.13 µM

* * *

# Tested on: SR leukemia
# measurement-protocol: NCI tumour cell line growth inhibition, 48 h; in the data active = GI50 below about 0.43 µM; inactive = the rest
Your response should consist of one outcome taken from active, inactive

Take a look at these entries with their results.
molecule	class-name
CCCCNC(=O)Oc1ccc(/C(=C(/C)Cc2ccc(OC)cc2)c2ccc(OCCN3CCCC3)cc2)cc1	inactive
CCCNC(=O)c1ccc(Cl)cc1Cl	inactive

Input line: What did the test return for "Cc1cc(N2CCCC2)nc(NCc2cc(Nc3ccnc4cc(Cl)ccc34)ccc2F)n1" ?
Output line: active

Input line: What did the test return for "N=C(N)c1ccc(NCCOCCNc2ccc(C(=N)N)cc2)cc1" ?
Output line: inactive

Input line: What did the test return for Cc1[nH]c(-c2nc3ccccc3[nH]2)c(C)c1C(=O)NC(C)C1CCCCC1 (stereo not given) ?
Output line: inactive

Input line: What did the test return for "COCCN1CCN(Cc2ccc(-c3n[nH]c4c3C(=O)c3c(NC(=O)NN5CCOCC5)cccc3-4)cc2)CC1" ?
Output line: active

Input line: What did the test return for CN(C)CC(C(=O)Cc1ccccc1)c1ccccc1 (stereo not given) ?
Output line: inactive

Input line: What did the test return for Cc1ccc(C2=C(c3ccccc3)C(c3ccccc3)Oc3ccc(C)cc32)cc1 (stereo not given) ?
Output line: inactive

Input line: What did the test return for "CCOC(=O)c1c(C)nc2c(c1N)CC(=O)N2CCc1ccccc1" ?
Output line: inactive

Input line: What did the test return for "CCCCNC(=O)c1cc(NCc2cc(O)ccc2O)ccc1O" ?
Output line: inactive

* * *

The following compounds each carry a recorded GI50 for MDA-MB-435.

Guide cases for GI50, answers given:
compound	target-entity	GI50
COC1C(OC(=O)/C=C/C=C/C=C/C=C\C(=O)O)CCC2(CO2)C1C1(C)OC1CC=C(C)C (centres undefined)	MDA-MB-435	> 200 µM
O=S1(=O)CS(=O)(=O)OCCO1	MDA-MB-435	72.9 µM
CN1CCN(c2nc(NCCCNc3ccnc4cc(Cl)ccc34)c3ccccc3n2)CC1	MDA-MB-435	2.09 µM
C[C@]12CC[C@H]3[C@@H](C[C@@H]4SC(Nc5ccccc5)=N[C@@]45CC(O)CC[C@]35C)[C@@H]1CCC2O (some centres undefined)	MDA-MB-435	2.25 µM
CCc1cc2ncc(CN3CCN(c4ccc(C(=O)NC)nc4)CC3)cc2[nH]c1=O	MDA-MB-435	85.8 µM

Input line: State GI50 (MDA-MB-435) of C=CC/C(=C\COP(=O)(OCc1ccc([N+](=O)[O-])o1)N(C)CCCCCl)CC/C=C(\C)CCC=C(C)C (centres undefined) .
Output line: 16.8 µM

Input line: State GI50 (MDA-MB-435) of "CCCNC(=O)c1ccc(Cl)cc1Cl" .
Output line: > 100 µM

Input line: State GI50 (MDA-MB-435) of Nc1nc(N)c2c(n1)NC(c1ccccc1)C1CCc3ccccc3C1=N2 (centres undefined) .
Output line: 2.93 µM

Input line: State GI50 (MDA-MB-435) of "CCC(=O)Nc1ccccc1C#C/C=C\C#Cc1ccccc1C(F)(F)F" .
Output line: 0.851 µM
